B1: Twister Ribozyme (parent)
chain: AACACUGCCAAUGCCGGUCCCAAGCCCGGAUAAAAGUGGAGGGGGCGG

- Variants of: B1
- METHOD SUMMARY: self-cleavage, relative activity (ratio to wild type); higher = more cleavage; co-transcriptional
Listed next: entries and their corresponding self-cleavage.
# print the numeric value only

{"VARIANT STRING": "G13C A35C", "self-cleavage": 0.403}
{"VARIANT STRING": "C25U C27G", "self-cleavage": 0.101}

As a next step, examine the variant that follows.
## Input Given the entry C14A G16U , report its measured self-cleavage.
## Output 0.394
